Attribute: TGI
- Test system: OVCAR-3 ovarian
- PROTOCOL TEXT: NCI tumour cell line growth inhibition, 48 h

Solved cases below.
CN(Cc1cnc2nc(N)nc(N)c2n1)c1c(Cl)cc(C(=O)NC(CCC(=O)O)C(=O)O)cc1Cl (stereo unspecified); > 100 µM
CCOC(=N)CC(=O)Nc1ccccc1CC; > 100 µM

The recorded TGI with OVCAR-3 ovarian for COc1ccc(N=C(C)C(C)=Nc2ccc(OC)cc2)cc1 was > 100 µM

The measured TGI that NCCCNCCSP(=O)(O)O showed for OVCAR-3 ovarian is > 750 µM

Field TGI (system: OVCAR-3 ovarian) for entry S=C(Nc1ccc(-c2nc3ccccc3s2)cc1)Nc1ccc(-c2nc3ccccc3s2)cc1 = > 100 µM

Observed TGI, OVCAR-3 ovarian, COc1ccc(-c2nc(-c3cnccn3)n(C/C=C/c3ccccc3)n2)cc1 : > 100 µM

Test item COC1OC(C)/C(=N/O)C2OC(C)(C)OC12 (stereo unspecified) ; OVCAR-3 ovarian; reported TGI was > 100 µM

Value (TGI, OVCAR-3 ovarian) for record CCC1OC2(C)CC(C#N)(C#N)C1(C#N)C(=N)O2 (stereo unspecified) = > 100 µM

Form field TGI for item Cc1cccc(NC(=S)Nc2cccc(Cl)c2)n1 on OVCAR-3 ovarian: > 100 µM

Log: OVCAR-3 ovarian, molecule O=C1c2ccccc2-c2c1c1ccccc1c(=O)n2CCNCCNCCNCCNCCn1c2c(c3ccccc3c1=O)C(=O)c1ccccc1-2 , TGI = 4.96 µM

Note to self: TGI of Nc1ccnc2c1ncn2[C@H]1C[C@H](O)[C@@H](CO)O1 with OVCAR-3 ovarian was > 100 µM

Short answer on OVCAR-3 ovarian for O=S1(=O)N=C(SCc2c[nH]c3ccccc23)N(c2ccccc2)c2ccncc21 , TGI: > 100 µM

Field TGI (OVCAR-3 ovarian), entry COC1(C)CCC(OS(C)(=O)=O)CO1 (stereo unspecified) : > 100 µM

Tested on OVCAR-3 ovarian, the item Cc1nc(Nc2ccc(Cl)cc2)sc1C(=O)Nc1cccc2c(=O)[nH][nH]c(=O)c12 showed TGI equal to 40.4 µM

Entry CC1(C)CC(=O)C2=C(C1)NC(=S)C(C#N)C2c1ccccc1 (stereo unspecified) : TGI on OVCAR-3 ovarian = > 100 µM

The molecule O=C(NNC(=O)c1ccncc1)C(=O)Nc1cc(Cl)c(Cl)cc1Cl , when measured on OVCAR-3 ovarian, yielded TGI of > 100 µM
